A collection of compounds and their measured Ki
Biological target: Cannabinoid receptor 2 (Homo sapiens, UniProt P34972)
Sequence (P34972 whole entry): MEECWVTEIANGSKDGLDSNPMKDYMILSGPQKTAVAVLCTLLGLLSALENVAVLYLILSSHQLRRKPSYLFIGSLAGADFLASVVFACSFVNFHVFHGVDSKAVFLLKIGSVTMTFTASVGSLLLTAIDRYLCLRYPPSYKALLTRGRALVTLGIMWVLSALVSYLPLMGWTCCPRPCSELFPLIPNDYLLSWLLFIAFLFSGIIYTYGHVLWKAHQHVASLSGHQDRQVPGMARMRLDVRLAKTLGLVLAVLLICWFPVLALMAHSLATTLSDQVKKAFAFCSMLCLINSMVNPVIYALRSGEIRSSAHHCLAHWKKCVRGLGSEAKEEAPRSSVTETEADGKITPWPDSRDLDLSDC
Assay: Displacement of [3H]-CP55940 from human CB2 receptor transfected in HEK293EBNA cell membranes after 90 mins by liquid scintillation counting analysis
Design: species or system HEK293-EBNA

Previously resolved entries follow.
1) Cc1ccc(Cn2cc(C(=O)Nc3cccc4ccccc34)cc2-c2ccc(Cl)c(C)c2)cc1 : > 5 µM
2) Cc1ccc(Cn2cc(C(=O)NC[C@@H]3CCC4C[C@@H]3C4(C)C)cc2-c2ccc(Cl)c(C)c2)cc1 : 0.0722 µM

Note to self: Ki of Cc1ccc(Cn2cc(C(=O)NC34CC5CC(CC(C5)C3)C4)cc2-c2ccc(Cl)c(C)c2)cc1 with Cannabinoid receptor 2 (Homo sapiens, UniProt P34972) was > 5 µM

Note to self: Ki of Cc1ccc(Cn2cc(CN3CCN(c4ccc(Cl)c(Cl)c4)CC3)cc2-c2ccc(Cl)c(C)c2)cc1 with Cannabinoid receptor 2 (Homo sapiens, UniProt P34972) was > 5 µM

Note to self: Ki of Cc1ccc(Cn2cc(C(=O)NN3CCCCC3)cc2-c2ccc(Cl)c(C)c2)cc1 with Cannabinoid receptor 2 (Homo sapiens, UniProt P34972) was > 5 µM
